TESTED SYSTEM: Stp1 (UniProt B3LFK1)
Sequence: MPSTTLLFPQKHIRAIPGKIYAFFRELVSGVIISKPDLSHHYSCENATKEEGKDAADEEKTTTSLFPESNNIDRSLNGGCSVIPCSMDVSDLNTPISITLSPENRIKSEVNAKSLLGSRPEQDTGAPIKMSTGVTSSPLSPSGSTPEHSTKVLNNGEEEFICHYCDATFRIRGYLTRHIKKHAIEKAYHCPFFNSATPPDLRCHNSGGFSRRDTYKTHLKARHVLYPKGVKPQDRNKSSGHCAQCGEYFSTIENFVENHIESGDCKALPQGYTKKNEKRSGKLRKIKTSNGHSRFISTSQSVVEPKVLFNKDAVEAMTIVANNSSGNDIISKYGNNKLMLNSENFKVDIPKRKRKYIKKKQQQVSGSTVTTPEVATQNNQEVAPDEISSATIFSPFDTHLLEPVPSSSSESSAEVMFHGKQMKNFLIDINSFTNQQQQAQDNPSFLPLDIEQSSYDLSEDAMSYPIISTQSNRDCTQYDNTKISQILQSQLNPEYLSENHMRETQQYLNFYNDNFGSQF
ASSAY: PBM E-score (8-mer binding enrichment) (E-score (-0.5 to 0.5)); higher = stronger / more preferred TF binding
CONDITION DETAILS: protein concentration: 200 nM; construct: GST-full length
The full ranking holds about 33,000 sequences; the median of “E-score (-0.5 to 0.5)” is about -0.016, and the highest 2% start at about 0.32. The list comes from a sample in which the highest values are over-represented; it also holds close analogues and randomly drawn sequences.
Label Satisfied when PBM E-score is at or above 0.07; otherwise label Not satisfied.

Exercise: I'd appreciate it if you could say whether ACACGGGC has PBM E-score at least equal to 0.07.
Solution: Satisfied

Exercise: Dear colleague, could you confirm whether ACTGTTCC has PBM E-score at or above 0.07?
Solution: Not satisfied

Exercise: # check: PBM E-score of GCCTAGCC is greater than or equal to 0.07
Solution: Not satisfied

Exercise: Is PBM E-score at least 0.07? Consider GCACGGCC
Solution: Satisfied

Exercise: Threshold query (PBM E-score >= 0.07) on CGCAGTTA
Solution: Satisfied

Exercise: Please tell me: is the sequence CCCCCTAG at or over 0.07 in terms of PBM E-score?
Solution: Not satisfied

Exercise: Could you please find out whether GCACGGAC has PBM E-score that meets 0.07 or exceeds it?
Solution: Satisfied

Exercise: Exam item: decide whether the reported PBM E-score for ACATGGCC is at least 0.07.
Solution: Satisfied

Exercise: Evaluate ACCCATAC : PBM E-score at minimum 0.07?
Solution: Not satisfied

Exercise: Quick check, PBM E-score >= 0.07? ACTCACAA
Solution: Not satisfied

Exercise: Assess whether reported PBM E-score for ACACGGCC sits at 0.07 or higher.
Solution: Satisfied

----------
TESTED SYSTEM: Stp1 (UniProt B3LFK1)
Sequence: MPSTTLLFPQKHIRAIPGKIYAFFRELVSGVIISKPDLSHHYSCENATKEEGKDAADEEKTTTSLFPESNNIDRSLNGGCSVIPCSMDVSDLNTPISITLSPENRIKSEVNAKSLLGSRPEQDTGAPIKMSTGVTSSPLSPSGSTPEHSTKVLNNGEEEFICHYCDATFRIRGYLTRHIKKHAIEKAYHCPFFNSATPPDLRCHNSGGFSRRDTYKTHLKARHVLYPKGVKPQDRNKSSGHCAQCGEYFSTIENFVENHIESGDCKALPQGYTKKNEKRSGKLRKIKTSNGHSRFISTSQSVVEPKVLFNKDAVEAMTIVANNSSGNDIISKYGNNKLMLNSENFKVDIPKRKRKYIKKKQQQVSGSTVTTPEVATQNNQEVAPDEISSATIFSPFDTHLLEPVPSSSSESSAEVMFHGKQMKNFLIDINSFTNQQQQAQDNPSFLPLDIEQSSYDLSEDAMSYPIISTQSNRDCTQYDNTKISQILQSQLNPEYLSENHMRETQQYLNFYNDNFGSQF
ASSAY: PBM E-score (8-mer binding enrichment) (E-score (-0.5 to 0.5)); higher = stronger / more preferred TF binding
CONDITION DETAILS: protein concentration: 200 nM; construct: GST-full length
Over roughly 33,000 sequences, “E-score (-0.5 to 0.5)” has its median near -0.016; the highest 2% begin near 0.32. For the sample, the highest values were picked, then their nearest neighbours and some sequences at random.
Consider the following sequences; for each one, report its PBM E-score.

Exercise: Tell me the measured PBM E-score of CGCGTGCA , please.
Solution: 0.0968

Exercise: Need PBM E-score of ACGGGGGC , thanks.
Solution: -0.325

Exercise: Would you kindly share the measured PBM E-score for TCCGTGAA ?
Solution: 0.0172

Exercise: Return reported PBM E-score; argument: CTCGTGCC
Solution: 0.294

Exercise: // query PBM E-score value for entry CCCGTGCC
Solution: 0.33

Exercise: Field request: PBM E-score | item: ATGGCTAG
Solution: 0.0312

Exercise: Returns the measured PBM E-score for the input sequence. Input: CCCGTGGC
Solution: 0.046

Exercise: Looking for the measured PBM E-score of ACTGGACG , can you help?
Solution: -0.112

Exercise: Query (sequence): ACACACGT ; field requested: PBM E-score
Solution: 0.0897

Exercise: Can you look up the measured PBM E-score of AGACACAA for me?
Solution: 0.154

Exercise: # query: PBM E-score of entry AGCGTGCC
Solution: 0.126

Exercise: Quick one: PBM E-score of GCCGTGAA ?
Solution: 0.361

Exercise: What does the data say about its PBM E-score? Entry: ACAAACGA
Solution: 0.129

Exercise: Entry CATGCACA has what PBM E-score?
Solution: 0.0872

Exercise: Which value of PBM E-score has been reported for CCACACGA in the records?
Solution: -0.105

Exercise: Recorded PBM E-score for CGCGTGCC , please?
Solution: 0.325

Exercise: Look up PBM E-score: AGACACGG
Solution: 0.363

Exercise: Param item = AGTTGGGA ; retrieve measured PBM E-score.
Solution: -0.114

Exercise: Could you tell me which PBM E-score is on file for CCACACGG ?
Solution: 0.385

Exercise: // PBM E-score lookup, key: AGTCGAAC
Solution: -0.146

Exercise: Fill in the blank: the reported PBM E-score of ACAAACGC is ____.
Solution: 0.252

Exercise: // returns reported PBM E-score for input CTGCTTAC
Solution: -0.0697

----------
TESTED SYSTEM: Stp1 (UniProt B3LFK1)
Sequence: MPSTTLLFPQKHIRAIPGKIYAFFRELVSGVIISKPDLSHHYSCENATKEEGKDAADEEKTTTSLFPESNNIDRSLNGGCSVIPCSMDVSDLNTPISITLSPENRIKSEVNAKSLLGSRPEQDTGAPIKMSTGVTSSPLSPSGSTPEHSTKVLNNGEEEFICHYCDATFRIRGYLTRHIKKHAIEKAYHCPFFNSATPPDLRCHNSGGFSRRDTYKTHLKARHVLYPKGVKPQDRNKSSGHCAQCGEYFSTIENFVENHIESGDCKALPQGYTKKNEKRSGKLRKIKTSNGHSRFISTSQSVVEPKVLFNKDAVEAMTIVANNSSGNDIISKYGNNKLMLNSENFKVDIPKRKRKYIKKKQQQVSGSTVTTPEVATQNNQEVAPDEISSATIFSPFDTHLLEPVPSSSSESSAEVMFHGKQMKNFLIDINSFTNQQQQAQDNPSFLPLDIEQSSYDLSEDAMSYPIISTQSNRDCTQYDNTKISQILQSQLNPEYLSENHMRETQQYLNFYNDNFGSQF
ASSAY: PBM E-score (8-mer binding enrichment) (E-score (-0.5 to 0.5)); higher = stronger / more preferred TF binding
CONDITION DETAILS: protein concentration: 200 nM; construct: GST-full length
In all, about 33,000 sequences were measured (“E-score (-0.5 to 0.5)”: median about -0.016, highest 2% from about 0.32 on). The list comes from a sample in which the highest values are over-represented; it also holds close analogues and randomly drawn sequences.
Please use YES whenever PBM E-score is not below 0.2, and NO whenever it is.

Exercise: Determine whether this sequence has PBM E-score no lower than 0.2: CCGCGCCG
Solution: YES

Exercise: For this sequence, is measured PBM E-score 0.2 or higher? CCGCGCCA
Solution: YES

Exercise: API: above_or_equal(metric=PBM E-score, cutoff=0.2) for item ACGCGCCG
Solution: YES

Exercise: Reported PBM E-score reaches at least 0.2 for CCGCGCCC ?
Solution: YES

Exercise: Exam item: decide whether the reported PBM E-score for GCAGCATA is at least 0.2.
Solution: NO

Exercise: Record GAGGGTAA ; criterion: PBM E-score no lower than 0.2. Met?
Solution: NO

Exercise: API: above_or_equal(metric=PBM E-score, cutoff=0.2) for item ACGCGCAG
Solution: NO

Exercise: Confirm if PBM E-score reported for the sequence CCGCGTCG is 0.2 or above.
Solution: YES

Exercise: Determine whether this sequence has PBM E-score no lower than 0.2: GACGGCCA
Solution: NO

Exercise: hey, is PBM E-score for this one >= 0.2? CCGCGTCA
Solution: YES

Exercise: Is the recorded value of PBM E-score equal to or greater than 0.2 for this sequence? AACGGCCA
Solution: YES
